Known Muscle, accumulated activity of a selection of compounds
# Tested on: KB tumor-bearing athymic nude mice
# testDetails: Biodistribution of 177Lu-RedFols in KB tumor-bearing mice
# Format: in vivo, mouse
# runParameters: 4 h p.i.
attributeMeasured: Muscle, accumulated activity (% IA/g)

| compound | readoutUnits | quantitativeReadout |
| --- | --- | --- |
| CN1c2c(nc(N)[nH]c2=O)NCC1CNc1ccc(C(=O)NC(CCC(=O)NC(CCCCNC(=O)CN2CCN(CC(=O)[O-])CCN(CC(=O)[O-])CCN(CC(=O)[O-])CC2)C(=O)NC(CCCCNC(=O)c2ccc(CNC(=O)CCCCc3ccc(I)cc3)cc2)C(=O)O)C(=O)O)cc1.[177Lu+3] (stereo not drawn) [[^177Lu]Lu-6S-RedFol-25] | % IA/g | 0.92 |
| CN1c2c(nc(N)[nH]c2=O)NC[C@H]1CNc1ccc(C(=O)N[C@@H](CCC(=O)N[C@@H](CCCCNC(=O)CN2CCN(CC(=O)O)CCN(CC(=O)O)CCN(CC(=O)O)CC2)C(=O)N[C@@H](CCCCNC(=O)c2ccc(CNC(=O)CCCc3ccc(I)cc3)cc2)C(=O)O)C(=O)O)cc1 [[^177Lu]Lu-6R-RedFol-3, metal not drawn] | % IA/g | 1.3 |
| CN1c2c(nc(N)[nH]c2=O)NC[C@H]1CNc1ccc(C(=O)N[C@@H](CCC(=O)N[C@@H](CCCCNC(=O)CN2CCN(CC(=O)O)CCN(CC(=O)O)CCN(CC(=O)O)CC2)C(=O)N[C@@H](CCCCNC(=O)c2ccc(CNC(=O)CCCCc3ccc(I)cc3)cc2)C(=O)O)C(=O)O)cc1 [[^177Lu]Lu-6R-RedFol-25, metal not drawn] | % IA/g | 1.3 |
| CN1c2c(nc(N)[nH]c2=O)NCC1CNc1ccc(C(=O)NC(CCC(=O)NC(CCCCNC(=O)CN2CCN(CC(=O)[O-])CCN(CC(=O)[O-])CCN(CC(=O)[O-])CC2)C(=O)NC(CCCCNC(=O)c2ccc(CNC(=O)CCCc3ccc(I)cc3)cc2)C(=O)O)C(=O)O)cc1.[177Lu+3] (stereo not drawn) [[^177Lu]Lu-6S-RedFol-3] | % IA/g | 1.2 |
| CN1c2c(nc(N)[nH]c2=O)NC[C@H]1CNc1ccc(C(=O)N[C@@H](CCC(=O)N[C@@H](CCCCNC(=O)CN2CCN(CC(=O)O)CCN(CC(=O)O)CCN(CC(=O)O)CC2)C(=O)N[C@@H](CCCCNC(=O)CCCCc2ccc(I)cc2)C(=O)O)C(=O)O)cc1 [[^177Lu]Lu-6R-RedFol-24, metal not drawn] | % IA/g | 1.3 |

Values from paper PMC10486429
